- assay.target: human CD28 antigen (human, UniProt P10747 19-152)
- assay.remarks: Octet; VHVL
experimental.readout: pKd
// pKd is dimensionless: -log10 of concentration (M)

## Input Requested field: pKd. Item: H1.1_L1 (antibody, V domains shown) VH: EVQLLESGGGLVQPGGSLRLSCAASGFTFPSRDMSWVRQAPGKRLEWVSTISSGGSFTHYPDSVKGRFTISRDNSKNTLYLQMNSLRAEDTAVYYCVRRSGDWYFDVWGAGTTVTVSS VL: EIVLTQSPGTLSLSPGERATLSCRVSSSISSSNLHWYQQKPGQSPRPLIYGTSNLASGVPVRFSGSGSGTDYTLTISRLEPEDFAVYYCQQWSSYPLYTFGGGTKVEIK
## Output 6.22
